Where do the numbers come from? From patent US20260116987A1.

// reported koff for each item listed
Target: T1, Human CCR8 (C-C chemokine receptor type 8) expressed on CHO-S cells (human, UniProt P51685 1-355)
T1 construct: also called huCCR8; human CCR8-expressing CHO-S cells
T1 sequence (P51685 whole entry): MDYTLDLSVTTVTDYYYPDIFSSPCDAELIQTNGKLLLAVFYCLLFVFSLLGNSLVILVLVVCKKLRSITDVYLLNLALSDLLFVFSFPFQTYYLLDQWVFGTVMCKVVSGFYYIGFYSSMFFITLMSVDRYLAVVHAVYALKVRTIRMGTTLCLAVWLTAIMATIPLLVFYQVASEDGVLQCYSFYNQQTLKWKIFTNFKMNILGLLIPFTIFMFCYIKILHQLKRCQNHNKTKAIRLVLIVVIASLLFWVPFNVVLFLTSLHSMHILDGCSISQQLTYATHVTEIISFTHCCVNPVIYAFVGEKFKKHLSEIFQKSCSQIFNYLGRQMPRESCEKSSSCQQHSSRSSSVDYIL
Assay: KinExA, on-cell affinity

| Binder | Units label | koff |
| --- | --- | --- |
| Humanized 1-K17.015 (antibody, human IgG1, kappa, V domains shown, Humanized with hotspot correction) VH: EVQLVQSGAEVKKPGASVKVSCKASGYTFTSYNMHWVRQAPGQRLEWIGAIYPGQGDTSYNQKFKGRATLTADKSASTAYMELSSLRSEDTAVYYCARKGGTPFAYWGQGTLVTVSS VL: DVVMTQSPLSLPVTLGQPASISCRSSQSLVHSNAQTYLYWYQQRPGQSPRLLIYKVSNRFSGVPDRFSGSGSGTDFTLKISRVEAEDVGVYFCSQSTHVPYTFGQGTKLEIKR | s⁻¹ | 0.000142 |
| Humanized 7-B16.001 (antibody, human IgG1, kappa, V domains shown, Humanized) VH: EVQLVESGGGLVQPGGSLKLSCAASGFTFNTYAMNWVRQASGKGLEWVGRIRSKSNNYATYYADSVKDRFTISRDDSKNTAYLQMNSLKTEDTAVYYCVRGLLRYRFFDVWGQGTTVTVSS VL: DIVMTQSPLSLPVTPGEPASISCRSSKSLLHSNGNTYLYWFLQKPGQSPQLLIYRMSNLASGVPDRFSGSGSGTDFTLKISRVEAEDVGVYYCMQHLEYPFTFGGGTKVEIKR | s⁻¹ | 7.93e-05 |
| Humanized 1-K17.044 (antibody, human IgG1, kappa, V domains shown, Humanized with hotspot correction) VH: EVQLVQSGAEVKKPGASVKVSCKASGYTFTSYNMHWVRQAPGQGLEWIGAIYPGAGDTSYNQKFKGRATLTADKSTSTAYMELSSLRSEDTAVYYCARKGGTPFAYWGQGTLVTVSS VL: DVVMTQSPLSLPVTLGQPASISCRSSQSLVHSNAATYLYWYQQRPGQSPRLLIYKVSNRFSGVPDRFSGSGSGTDFTLKISRVEAEDVGVYFCSQSTHVPYTFGQGTKLEIKR | s⁻¹ | 6.67e-05 |
| Humanized 7-B16.033 (antibody, human IgG1, kappa, V domains shown, Humanized) VH: EVQLVESGGGLVQPGRSLRLSCTASGFTFATYAMNWVRQAPGKGLEWVARIRSKSNNYATYYADSVKDRFTISRDDSKSILYLQMNSLKTEDTAVYYCVRGLLRYRFFDVWGQGTTVTVSS VL: DIVMTQSPLSLPVTPGEPASISCRSSKSLLHSNGNTYLYWFLQKPGQSPQLLIYRMSNLASGVPDRFSGSGSGTDFTLKISRVEAEDVGVYYCMQHLEYPFTFGGGTKVEIKR | s⁻¹ | 0.000391 |
